# maps each entry to its melting point

Observe how each entry below is paired with its result.
{"MOLECULE": "CCCCOc1ccc2cccc(CC(=O)O)c2c1 [compound #33, α-(7-Butoxy-1-naphthalenyl)-acetic acid]", "MEASURED METRIC": "melting point", "REPORTED RESULT": "102 to 104 °C"}
{"MOLECULE": "CCOc1ccc2[nH]cc(CC(=O)O)c2c1 [compound #37, 5-Ethoxy-3-indoleacetic acid]", "MEASURED METRIC": "melting point", "REPORTED RESULT": "86 to 92.7 °C"}
{"MOLECULE": "CCCOc1ccc2[nH]cc(CC(=O)O)c2c1 [compound #38, 5-(1-Propoxy)-3-indoleacetic acid]", "MEASURED METRIC": "melting point", "REPORTED RESULT": "133.6 to 136.8 °C"}
{"MOLECULE": "CCCCOc1ccc2[nH]cc(CC(=O)O)c2c1 [compound #39, 5-(1-Butoxy)-3-indoleacetic acid]", "MEASURED METRIC": "melting point", "REPORTED RESULT": "137.8 to 141.1 °C"}
{"MOLECULE": "O=C(CC(C(=O)O)c1c[nH]c2ccccc12)c1ccccc1 (stereo not shown) [compound #20]", "MEASURED METRIC": "melting point", "REPORTED RESULT": "149 to 150 °C"}
{"MOLECULE": "CCCCCOc1ccc2cccc(CC(=O)O)c2c1 [compound #34, α-(7-Pentoxy-1-naphthalenyl)-acetic acid]", "MEASURED METRIC": "melting point", "REPORTED RESULT": "104 to 106 °C"}

Now for another entry.
Requested read-out: melting point. Entry: CCCn1cc(C(CC(=O)c2ccc(C)cc2C)C(=O)O)c2ccccc21 (stereo not shown) [compound #6] 139 to 141 °C
